Listing: Relative cAMP EC50 of selected binders
Biological target: human glucagon receptor (human) (UniProt P47871)
Sequence (P47871 26-477): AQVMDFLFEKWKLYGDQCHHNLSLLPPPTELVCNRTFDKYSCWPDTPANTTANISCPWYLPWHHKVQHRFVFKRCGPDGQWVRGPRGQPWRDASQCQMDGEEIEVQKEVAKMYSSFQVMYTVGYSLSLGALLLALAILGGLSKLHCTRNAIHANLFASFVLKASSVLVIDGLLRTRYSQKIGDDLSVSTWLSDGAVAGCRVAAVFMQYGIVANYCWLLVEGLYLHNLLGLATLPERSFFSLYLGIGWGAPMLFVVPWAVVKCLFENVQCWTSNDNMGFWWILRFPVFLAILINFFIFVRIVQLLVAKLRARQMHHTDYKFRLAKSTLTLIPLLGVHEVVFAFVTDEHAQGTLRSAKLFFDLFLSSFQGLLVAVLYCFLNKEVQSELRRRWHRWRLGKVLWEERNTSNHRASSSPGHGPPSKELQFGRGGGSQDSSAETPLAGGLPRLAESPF
Test: cell-based or functional assay

>  <Binder>
YXQGTFTSDFSQXLDKKAQXAFIEYLIAGGPSSGAPPPSGS (not fully specified; synthetic construct; SITE 2: note = 2-Aminoisobutyric Acid; SITE 13: note = alpha-methyl-leucine; SITE 17: note = Lysine is chemically modified through conjugation of the epsilon-amino group of the Lysine side chain with (gamma-Glu)2-CO-(CH2)16-CO2H; SITE 20: note = 3-(4-Pyridyl)-L-alanine; SITE 41:) [Example 876]

>  <Relative cAMP EC50, nM>
3.28

$$$$
>  <Binder>
YXQGTFTSDFSXXLDXKAQXAFIEXLLAGGPSSGAPPPEGSEE (non-natural residues, (γGlu)2-C18 diacid lysine acylation, C-terminal amide; synthetic construct; SITE 2: note = 2-Aminoisobutyric Acid; SITE 12: note = L-ornithine; SITE 13: note = alpha-methyl-leucine; SITE 16: note = L-ornithine; SITE 17: note = Lysine is chemically modified through conjugation of the epsilon-amino group of the Lysine side chain with (gamma-Glu)2-CO-(CH2)) [Example 1053]

>  <Relative cAMP EC50, nM>
10.4

$$$$
>  <Binder>
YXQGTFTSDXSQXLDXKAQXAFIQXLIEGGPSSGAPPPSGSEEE (non-natural residues (Aib, 4Pal, Orn, Me4Pal, αMeY); lipidated K; amide; synthetic construct; SITE 2: note = 2-Aminoisobutyric Acid; SITE 10: note = 3-(4-Pyridyl)-L-alanine; SITE 13: note = alpha-methyl-leucine; SITE 16: note = L-ornithine; SITE 17: note = Lysine is chemically modified through conjugation of the epsilon-amino group of the Lysine side chain with D-Glutami) [Example 1076]

>  <Relative cAMP EC50, nM>
59

$$$$
